- Tgt: muscarinic receptors
- Experimental protocol: ^3H-oxotremorine-M binding assay (inhibition of binding to cerebral cortical membranes)
- Experimental setup: 3 nM ^3H-oxotremorine-M, rat cerebral cortical membranes, 15 minutes at 25°C, read-out: Inhibition of ^3H-Oxo
Measured endpoint: IC50 (nM)

Below, each entry is followed by its recorded IC50 result.
[[record]]
molecule = "CCCOc1nsnc1C1=CCCN(C)C1.O=C(O)C(=O)O [Compound 3, oxalate]"
unit_of_measure = "nM"
number = 1.6

[[record]]
molecule = "CCSc1nsnc1C1=CCCNC1.Cl [Compound 216, hydrochloride]"
unit_of_measure = "nM"
number = 6.5

[[record]]
molecule = "COc1nsnc1C1=CCCN(C)C1.O=C(O)C(=O)O [Compound 1, oxalate]"
unit_of_measure = "nM"
number = 22


[P] CCCSc1nsnc1C1=CCCN(C)C1.O=C(O)C(=O)O [Compound 47, oxalate]
[Q] CCCCSc1nsnc1C1=CCCNC1.O=C(O)C(=O)O [Compound 218, oxalate]
Between the entries labelled P and Q , which has a larger IC50 value on record? Indicate which entry you chose by stating its label.
Q
(Q: 3.5 nM, P: 0.9 nM)

[a] Cl.FC(F)(F)CSc1nsnc1C1=CCCNC1 [Compound 222, hydrochloride]
[b] CCOc1nsnc1C1=CCCNC1.Cl [Compound 215, hydrochloride]
[c] CCCCCSc1nsnc1C1=CCCNC1.O=C(O)C(=O)O [Compound 219, oxalate]
[d] CCSc1nsnc1C1=CCCN(C)C1.O=C(O)C(=O)O [Compound 65, oxalate]
[e] CCCSc1nsnc1C1=CCCNC1.O=C(O)C(=O)O [Compound 217, oxalate]
Kindly order the items shown according to IC50, from the highest value down. Use the labels to give the requested order.
b, c, d, e, a

###

- Tgt: muscarinic receptors
- Experimental protocol: ^3H-oxotremorine-M binding assay (inhibition of binding to cerebral cortical membranes)
- Experimental setup: 3 nM ^3H-oxotremorine-M, rat cerebral cortical membranes, 15 minutes at 25°C, read-out: Inhibition of ^3H-Oxo
Measured endpoint: IC50 (nM)

Below, each entry is followed by its recorded IC50 result.
[[record]]
compound = "CCCCOc1nsnc1C1=CCCN(C)C1.O=C(O)C(=O)O [Compound 4, oxalate]"
measured_endpoint = "IC50"
number = 2

[[record]]
compound = "CSc1nsnc1C1=CCCN(C)C1.O=C(O)C(=O)O [Compound 49, oxalate]"
measured_endpoint = "IC50"
number = 2.3

[[record]]
compound = "CCOc1nsnc1C1=CCCN(C)C1.O=C(O)C(=O)O [Compound 2, oxalate]"
measured_endpoint = "IC50"
number = 5.7

[[record]]
compound = "CCCCCCSc1nsnc1C1=CCCNC1 [Compound 220]"
measured_endpoint = "IC50"
number = 3

[[record]]
compound = "CN1CCC=C(c2nsnc2SCCSc2cccs2)C1 [Compound 228]"
measured_endpoint = "IC50"
number = 0.6


[1] Cl.FC(F)(F)COc1nsnc1C1=CCCNC1 [Compound 223, hydrochloride]
[2] CCCCCSc1nsnc1C1=CCCN(C)C1.O=C(O)C(=O)O [Compound 66, oxalate]
[3] CCCCSc1nsnc1C1=CCCN(C)C1.O=C(O)C(=O)O [Compound 48, oxalate]
# rank by IC50, ascending (min first) Use the labels to give the requested order.
3, 2, 1
